# test-system: Ybr033w (UniProt P38073)
# Sequence: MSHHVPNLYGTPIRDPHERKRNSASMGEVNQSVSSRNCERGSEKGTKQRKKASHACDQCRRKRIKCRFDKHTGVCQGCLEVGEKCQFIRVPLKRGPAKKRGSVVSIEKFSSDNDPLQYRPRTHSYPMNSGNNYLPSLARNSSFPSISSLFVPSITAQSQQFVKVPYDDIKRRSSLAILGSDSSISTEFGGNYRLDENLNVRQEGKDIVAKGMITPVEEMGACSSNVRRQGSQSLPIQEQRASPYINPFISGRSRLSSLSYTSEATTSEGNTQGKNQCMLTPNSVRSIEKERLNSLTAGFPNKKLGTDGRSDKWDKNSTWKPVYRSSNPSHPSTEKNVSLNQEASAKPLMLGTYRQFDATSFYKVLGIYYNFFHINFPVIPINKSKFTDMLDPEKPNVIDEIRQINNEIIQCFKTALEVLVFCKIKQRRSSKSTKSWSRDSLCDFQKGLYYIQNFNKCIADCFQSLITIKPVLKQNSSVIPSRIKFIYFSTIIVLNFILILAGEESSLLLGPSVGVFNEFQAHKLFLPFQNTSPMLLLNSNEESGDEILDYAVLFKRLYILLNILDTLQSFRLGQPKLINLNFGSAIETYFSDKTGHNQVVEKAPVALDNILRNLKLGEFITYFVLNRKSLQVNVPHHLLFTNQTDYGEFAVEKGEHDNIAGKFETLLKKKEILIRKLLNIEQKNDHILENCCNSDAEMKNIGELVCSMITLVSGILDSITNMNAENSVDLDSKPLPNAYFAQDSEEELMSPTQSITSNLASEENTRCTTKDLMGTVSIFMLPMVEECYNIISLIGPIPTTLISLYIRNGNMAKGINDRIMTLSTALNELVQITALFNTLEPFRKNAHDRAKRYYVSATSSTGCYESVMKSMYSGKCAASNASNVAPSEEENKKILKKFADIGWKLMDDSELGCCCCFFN
# assay-explanation: PBM E-score (8-mer binding enrichment) (E-score (-0.5 to 0.5)); higher = stronger / more preferred TF binding
# condition-context: protein concentration: 200 nM; construct: GST-full length
In all, about 33,000 sequences were measured (“E-score (-0.5 to 0.5)”: median about -0.012, highest 2% from about 0.29 on). The sample as a whole holds a higher share of the highest values than the screen did.
Entries and their measured PBM E-score follow.
Quick one: just the number, no unit, thanks!

Data request: # get_value(readout='PBM E-score', item= `CCTACCGC` )
Data returned: -0.292

Data request: # get_value(readout='PBM E-score', item= `AGCTCACG` )
Data returned: -0.088

Data request: # get_value(readout='PBM E-score', item= `AGTTCTAC` )
Data returned: 0.0539

Data request: # get_value(readout='PBM E-score', item= `CTCCAGTA` )
Data returned: 0.109

Data request: # get_value(readout='PBM E-score', item= `CTTTTCCC` )
Data returned: 0.0333

Data request: # get_value(readout='PBM E-score', item= `TCCCACGA` )
Data returned: 0.0793

Data request: # get_value(readout='PBM E-score', item= `GCTTAATA` )
Data returned: 0.0557

Data request: # get_value(readout='PBM E-score', item= `CGAAGCTC` )
Data returned: -0.147

Data request: # get_value(readout='PBM E-score', item= `GCTACAAC` )
Data returned: 0.0399

Data request: # get_value(readout='PBM E-score', item= `AGCGCTTC` )
Data returned: 0.016

New cases:
Data request: # get_value(readout='PBM E-score', item= `GTTTTCCA` )
Data returned: 0.215

Data request: # get_value(readout='PBM E-score', item= `CCTTTTCC` )
Data returned: -0.15

Data request: # get_value(readout='PBM E-score', item= `AACGATGA` )
Data returned: 0.0671

Data request: # get_value(readout='PBM E-score', item= `CATTATCG` )
Data returned: 0.0618

Data request: # get_value(readout='PBM E-score', item= `CCTGTAGC` )
Data returned: -0.353

Data request: # get_value(readout='PBM E-score', item= `AATTATCA` )
Data returned: 0.324
